Source listed as paper PMC10721329.

# procedure text: Plasma pharmacokinetics by route of administration (IP, SC, OG)
# Type: in vivo, athymic nude mice
# experimental conditions: male, athymic nude (Foxn1nu), mouse, plasma; IP; single dose 10 mg/kg; athymic nude mice; read-out: AUClast (plasma)
readout type: AUC(0-t) (µM·h)

compound structure string: Cn1cc(CNCC2CCN(c3ncc(C(=O)NO)cn3)CC2)c2ccccc21
measured result: 1.2

---

# procedure text: Stability in mouse plasma at 37°C
# Format: in vitro ADME
# experimental conditions: BALB/c, mouse, plasma; 37°C; 8-hour incubation
readout type: half-life

molecule: Cn1cc(CNCC2CCN(c3ncc(C(=O)NO)cn3)CC2)c2ccccc21 [QST, quisinostat]
readout type: half-life
measured result: ~1 h

---

# procedure text: Plasma pharmacokinetics by route of administration (IP, SC, OG)
# Assay type: in vivo, athymic nude mice
# experimental conditions: male, Foxn1nu athymic nude, mouse, plasma, oral, 10 mg/kg, OG 10 mg/kg single dose; 0.5 h; individual mice; read-out: [QST] in plasma
readout type: concentration at 0.5 h (nM)

compound structure string: Cn1cc(CNCC2CCN(c3ncc(C(=O)NO)cn3)CC2)c2ccccc21
units label: nM
measured result: 8.17

---

# procedure text: Plasma pharmacokinetics by route of administration (IP, SC, OG)
# Format: in vivo, athymic nude mice
# experimental conditions: male, athymic nude (Foxn1nu), mouse, plasma, oral; OG; single dose 10 mg/kg; athymic nude mice; read-out: AUClast (plasma)
readout type: AUC(0-t) (µM·h)

compound: Cn1cc(CNCC2CCN(c3ncc(C(=O)NO)cn3)CC2)c2ccccc21 [QST, quisinostat]
readout type: AUC(0-t)
measured result: 0.106

---

# procedure text: Total and unbound QST in tumor and contralateral brain at survival end point, orthotopic GB126 PDX
# Format: in vivo
# experimental conditions: athymic nude, mouse, in vivo; orthotopic GB126; end point (moribund); 3 hours after 10 mg/kg; read-out: unbound QST in tumors, mean

compound structure string: Cn1cc(CNCC2CCN(c3ncc(C(=O)NO)cn3)CC2)c2ccccc21
units label: nM
concentration at 3 h: 71.4

---

# procedure text: Total and unbound QST in tumor and contralateral brain at survival end point, orthotopic GB126 PDX
# Format: in vivo
# experimental conditions: athymic nude, mouse, brain (contralateral to tumor), intraperitoneal, 10 mg/kg, QST cohort; mean; read-out: Unbound QST, Brain, Mean
# Description: All mice included in the survival study were processed for end-point PK and PD analyses once moribund. […] QST concentrations in specimens were measured using reverse-phase LC on the AB SCIEX QTRAP6500+ LC-MS/MS system by operating electrospray in the positive ion mode. […] Gy on MWF for a total of 6 Gy in the first week of treatment. […] Tumor growth and treatment response was monitored by IVIS bioluminescence […]

compound structure string: Cn1cc(CNCC2CCN(c3ncc(C(=O)NO)cn3)CC2)c2ccccc21
concentration at 3 h, nM: 3.39

---

# procedure text: Total QST levels in plasma and flank tumors (LC-MS/MS)
# Type: in vivo
# experimental conditions: athymic nude, mouse, plasma, intraperitoneal, 10 mg/kg, QST monotherapy cohort; read-out: [QST] total, plasma, Mean
readout type: concentration at 2 h (nM)

compound structure string: Cn1cc(CNCC2CCN(c3ncc(C(=O)NO)cn3)CC2)c2ccccc21
readout type: concentration at 2 h
measured result: 250
